biological target: HIV Env, isolate REJO4541.67 (HIV); assay: cell-based or functional assay
Recorded measurements of IC80 (µg/ml) with constrains, one per entry

ePGDM13 (antibody, V domains shown) VH: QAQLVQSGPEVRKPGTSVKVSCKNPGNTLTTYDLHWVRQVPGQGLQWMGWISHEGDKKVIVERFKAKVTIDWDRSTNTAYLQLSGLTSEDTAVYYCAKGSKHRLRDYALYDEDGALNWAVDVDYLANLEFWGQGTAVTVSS VL: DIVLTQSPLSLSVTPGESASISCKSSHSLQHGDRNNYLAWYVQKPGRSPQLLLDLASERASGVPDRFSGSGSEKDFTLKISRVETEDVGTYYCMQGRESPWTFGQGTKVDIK ... 0.008 µg/mL
PGDM1400 (antibody, V domains shown) VH: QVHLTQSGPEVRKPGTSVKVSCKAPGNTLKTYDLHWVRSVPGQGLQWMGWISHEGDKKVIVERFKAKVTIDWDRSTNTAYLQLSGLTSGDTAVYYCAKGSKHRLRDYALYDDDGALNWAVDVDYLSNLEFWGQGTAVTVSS VL: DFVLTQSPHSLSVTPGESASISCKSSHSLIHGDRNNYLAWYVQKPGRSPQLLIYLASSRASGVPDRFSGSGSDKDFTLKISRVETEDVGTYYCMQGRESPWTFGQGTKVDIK ... 0.017 µg/mL
ePGDM5 (antibody, V domains shown) VH: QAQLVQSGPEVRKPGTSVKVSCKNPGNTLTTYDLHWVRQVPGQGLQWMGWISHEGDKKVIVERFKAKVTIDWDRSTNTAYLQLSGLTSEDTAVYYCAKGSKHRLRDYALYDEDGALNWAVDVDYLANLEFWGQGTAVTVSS VL: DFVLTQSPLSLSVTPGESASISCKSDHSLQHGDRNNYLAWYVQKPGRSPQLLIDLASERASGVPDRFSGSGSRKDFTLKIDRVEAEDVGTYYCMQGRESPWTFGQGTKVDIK ... 0.005 µg/mL

Next binder, please.
Suppose we examine the binder ePGDM9 (antibody, V domains shown) VH: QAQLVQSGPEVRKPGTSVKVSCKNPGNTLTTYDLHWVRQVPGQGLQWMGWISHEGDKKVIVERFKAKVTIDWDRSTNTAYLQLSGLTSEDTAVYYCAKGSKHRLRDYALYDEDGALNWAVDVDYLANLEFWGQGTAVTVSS VL: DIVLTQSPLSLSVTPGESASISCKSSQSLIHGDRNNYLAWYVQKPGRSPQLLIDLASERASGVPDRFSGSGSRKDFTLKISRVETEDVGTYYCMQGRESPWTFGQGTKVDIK ; what IC80 (µg/ml) with constrains value has been reported? 0.003 µg/mL
